- Test system: Saccharomyces cerevisiae;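 further: PSI is a weighted mean of sequencing reads over stability bins, variants kept only with over 10 reads, mCherry proximal and sfGFP distal, peptide attached via GGGS linker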
- EXPERIMENT_DESCRIPTION: protein stability index of tFT-peptide fusion (C-terminal peptide) (PSI (0-1 scale)); higher = more stable (slower turnover)
- SETUP_CONDITIONS: genetic background: wild type; temperature: 30 C
Catalogue of protein stability index values
PROPERTY: protein stability index

- RPHTSPPPRHLY: 0.61
- LFCLCYDVCVPS: 0.662
- YRTCLHRGRQML: 0.682
- PPFLTTYPHLAP: 0.71
- FTYFLPPPALCS: 0.521
- GASGRKPGCDRL: 0.67
- SWGRGADRWRRA: 0.319
- PPPRPSPLSSSL: 0.678
- RGIFLGVCALDY: 0.696
- PPPPPARPSVPP: 0.673
- LAASVTERPAGR: 0.703
- DAWRAGESTEGG: 0.71
- RTTKRKIKIIGI: 0.709
- WFAGRDRHRAND: 0.745
- PGHICVPVLGTA: 0.447
- LAEFTCTQGCSY: 0.67
- PRPLTRPVPPLS: 0.68
- PGSTCWLFEFLS: 0.711
- GGVGGGGREWRR: 0.683
- GEKDGAVGRGEV: 0.614
- GSRALDSPSHCS: 0.74
- VLVYISDLKRSL: 0.689
- LGVFAVGGVRLG: 0.668
- FFVGFASLRLVL: 0.552
- LGLYNRFSMFGS: 0.645
- REKEIIIIKKEK: 0.683
- YWRNYLVLVCKF: 0.359
- CCLNHIFECLTL: 0.701
- CFVWFSVVLLFA: 0.194
- LLGDFAVLTCVF: 0.453
- AGSSGVRLSEFP: 0.671
- PPSSPPHSRRHG: 0.664
- LGACGWVDWWGL: 0.774
- PPPPTALPHPDL: 0.604
- FGFIEGKRLGIT: 0.62
- SVVVLHVHVRPP: 0.517
- GALEMNVCVPWL: 0.65
- RSCPILLLSFPL: 0.623
- SFRYVGLTRVFG: 0.592
- GLPHPPPHPFSL: 0.763
- LRALGPRIYRIS: 0.317
